Reference source: PubChem BioAssay

# Tested on: Chordin-like protein 2 (CHRDL2)
# method summary: CHRDL2 small-molecule binders, primary screen, biochemical, small-molecule microarray, 635 nm fluorescence (AID 1126);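 also: printed compound slides probed with Chrdl2 protein at 4 µg/mL for 1 h at 4 C; score merges 667 nm emission intensity with signal to noise over three replicate slides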
# conditions used: small-molecule microarray binding, fluorescence 635 nm; higher = more signal
observable: composite z-score
Reply briefly: the number, and no unit.

Worked set:
| compound | observable | obs value |
| --- | --- | --- |
| COc1ccc(-c2ccc3c(n2)CCCN3CC(O)CN2CCCc3nc(C)c(C)cc32)cc1 (centres undefined) | composite z-score | 1.18 |
| CC(C)=CCCC(C)=CCON=C1[C@H]2CCn3c(=O)n(Cc4cc5c(cc4Cl)OCO5)c(=O)n3[C@H]2[C@H](O)[C@@H]2O[C@H]12 | composite z-score | 1.08 |
| CC(CCN1CCc2nc(-c3ccccc3)c(-c3ccccc3)cc2C1)=NO[C@H](C)c1cn([C@@H]2COC[C@H]2O)nn1 | composite z-score | 0.0957 |

**Q:** Give the reported composite z-score for C[N+](C)(C)CCCCCCNC(=O)[C@@H]1C[C@@H]2C(=O)N3CCC[C@H]3C(=O)N2[C@@H]1c1cccc(OCCO)c1 (system: Chordin-like protein 2 (CHRDL2)).
**A:** 0.954
